- ASSAY TARGET: SpTPC1 (Strongylocentrotus purpuratus)
- Construct: endogenous full-length protein immunoprecipitated with anti-SpTPC1 serum from solubilized egg membranes (S10P100 fraction); native complex, may carry associated proteins
- Sequence (B8PXJ8 1-882): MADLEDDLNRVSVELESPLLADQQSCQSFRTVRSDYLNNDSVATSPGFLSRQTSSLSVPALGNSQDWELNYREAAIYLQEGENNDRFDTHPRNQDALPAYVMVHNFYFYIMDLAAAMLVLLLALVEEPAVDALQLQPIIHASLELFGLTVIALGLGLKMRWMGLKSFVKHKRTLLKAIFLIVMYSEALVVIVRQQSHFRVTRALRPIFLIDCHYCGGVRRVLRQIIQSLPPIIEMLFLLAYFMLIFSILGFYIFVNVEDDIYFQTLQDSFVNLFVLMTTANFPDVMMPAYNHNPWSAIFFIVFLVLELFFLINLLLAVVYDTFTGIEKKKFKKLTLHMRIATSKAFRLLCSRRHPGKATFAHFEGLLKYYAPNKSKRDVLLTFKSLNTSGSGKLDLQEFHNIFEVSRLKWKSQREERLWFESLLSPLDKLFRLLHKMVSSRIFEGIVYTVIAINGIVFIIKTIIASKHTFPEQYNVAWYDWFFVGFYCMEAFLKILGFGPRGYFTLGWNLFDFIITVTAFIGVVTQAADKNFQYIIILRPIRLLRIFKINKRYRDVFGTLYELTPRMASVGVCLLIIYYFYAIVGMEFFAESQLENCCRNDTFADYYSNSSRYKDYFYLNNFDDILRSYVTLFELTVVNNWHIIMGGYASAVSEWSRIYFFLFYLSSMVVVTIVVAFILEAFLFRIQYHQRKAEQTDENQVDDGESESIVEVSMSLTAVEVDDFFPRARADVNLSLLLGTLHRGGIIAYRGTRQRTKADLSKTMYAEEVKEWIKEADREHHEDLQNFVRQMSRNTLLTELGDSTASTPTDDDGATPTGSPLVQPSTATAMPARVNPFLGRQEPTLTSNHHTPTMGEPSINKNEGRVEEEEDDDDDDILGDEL
- PROCEDURE DETAILS: […]NAADP competition binding on immunoprecipitate
- CONDITIONS: competitor against [32P]NAADP; immunopurified native complex; K+-dependent irreversible binding
OBSERVED PROPERTY: pIC50
// field semantics: pIC50 = negative decimal log of concentration (mol/L)

Quick one: pIC50 of Nc1ncnc2c1ncn2[C@@H]1O[C@H](COP(=O)(O)OP(=O)(O)OC[C@H]2O[C@@H]([n+]3cccc(C(=O)O)c3)[C@H](O)[C@@H]2O)[C@@H](O)[C@H]1OP(=O)(O)O ?
8.85
